# System: HCV proteins in Rep5.1 cells (replicon cell line)
# assay: Inhibitory activity of HCV: cell-based ELISA in replicon cell line Rep5.1 (decrease of HCV proteins)
# Design: species or system hepatitis C virus
# assay-context: Hepatitis C virus, 72 h
Counter-ions that a name gives are not always drawn.
IC50 by entry:
measurement-label: IC50 (nM)

{"molecule": "CC1=C(C(=O)OCCc2cccc(Cl)c2)C(COC(=O)NCCN(C)C)NC(=S)N1 (stereo not shown) [86″, trifluoroacetate]", "measurement-label": "IC50", "sign-qualifier": "=", "test-result": 700}
{"molecule": "CC(C)=CCOC(=O)C1=C(C)NC(=S)NC1 [Compound 53]", "measurement-label": "IC50", "sign-qualifier": "=", "test-result": 6600}
{"molecule": "CC1=C(C(=O)OCC2=CCC3CC2C3(C)C)CNC(=S)N1 (stereo not shown) [Compound 97]", "measurement-label": "IC50", "sign-qualifier": "<", "test-result": 400}
{"molecule": "CC1=C(C(=O)OCC2CC3CCC2C3)CNC(=S)N1 (stereo not shown) [Compound 151]", "measurement-label": "IC50", "sign-qualifier": "<", "test-result": 400}

* * *

# Test system: HCV proteins in Rep5.1 cells (replicon cell line)
# assay: Inhibitory activity of HCV: cell-based ELISA in replicon cell line Rep5.1 (decrease of HCV proteins)
# Set-up: species or system hepatitis C virus
# assay-context: Hepatitis C virus, 72 h, Rep5.1 cells, 72 hours with drug, decrease of HCV proteins measured by HCV antibody; Table 1; read-out: Level (IC50 values classified)
IC50 by entry:
measurement-label: IC50

{"compound": "CC1=C(C(=O)OC(C)Cc2ccsc2)CNC(=S)N1 (stereo not shown)", "study-target": "HCV proteins in Rep5.1 cells (replicon cell line)", "measurement-label": "IC50", "test-result": "1000 to 10000 nM"}
{"compound": "COC(=O)C(C)(C)COC(=O)OCC1NC(=S)NC(C)=C1C(=O)OCCc1cccc(Cl)c1 (stereo not shown)", "study-target": "HCV proteins in Rep5.1 cells (replicon cell line)", "measurement-label": "IC50", "test-result": "< 1000 nM"}
{"compound": "CCCCCCC(C)OC(=O)C1=C(C)NC(=S)NC1 (stereo not shown)", "study-target": "HCV proteins in Rep5.1 cells (replicon cell line)", "measurement-label": "IC50", "test-result": "< 1000 nM"}
{"compound": "CC1=C(C(=O)OCCc2ccc(C)c(Cl)c2)C(CO)NC(=S)N1 (stereo not shown)", "study-target": "HCV proteins in Rep5.1 cells (replicon cell line)", "measurement-label": "IC50", "test-result": "< 1000 nM"}
{"compound": "CCCCCCCCNC(=O)CCCCCOC(=O)C1=C(C)NC(=S)NC1", "study-target": "HCV proteins in Rep5.1 cells (replicon cell line)", "measurement-label": "IC50", "test-result": "> 20000 nM"}
{"compound": "CC1=C(C(=O)OCCCc2ccccc2)C(CO)NC(=S)N1 (stereo not shown)", "study-target": "HCV proteins in Rep5.1 cells (replicon cell line)", "measurement-label": "IC50", "test-result": "1000 to 10000 nM"}
{"compound": "CC1=C(C(=O)OCc2ccc(OCC(C)C)cc2)CNC(=S)N1", "study-target": "HCV proteins in Rep5.1 cells (replicon cell line)", "measurement-label": "IC50", "test-result": "< 1000 nM"}
{"compound": "COc1ccc(Cl)cc1CCOC(=O)C1=C(C)NC(=S)NC1CF (stereo not shown)", "study-target": "HCV proteins in Rep5.1 cells (replicon cell line)", "measurement-label": "IC50", "test-result": "< 1000 nM"}
{"compound": "CC1=C(C(=O)OCCc2ccc(N3CCCC3)c([N+](=O)[O-])c2)C(CO)NC(=S)N1 (stereo not shown)", "study-target": "HCV proteins in Rep5.1 cells (replicon cell line)", "measurement-label": "IC50", "test-result": "< 1000 nM"}
{"compound": "CC1=C(C(=O)OCc2cc3c(C)snc3s2)CNC(=S)N1", "study-target": "HCV proteins in Rep5.1 cells (replicon cell line)", "measurement-label": "IC50", "test-result": "1000 to 10000 nM"}

Where do these numbers come from? They come from patent US20060116390A1.
